TEST_SYSTEM: human Edg-1(S1P1) (Homo sapiens)
Construct: expressed in transfected cells; host or cells: HEK-293
TEST_METHOD_NOTES: Membrane system binding test: inhibition of [33P]-S1P binding to the membrane fraction of Edg-1(S1P1) gene transferred HEK-293 cells
STATED_CONDITIONS: 10 μM compound; [33P]-S1P 0.1 nM; membrane fraction of Edg-1(S1P1) gene transferred HEK-293 cells; read-out: Membrane system binding test % inhibition (10 μM)
PARAMETER_MEASURED: inhibition at 10 µM (%)

Solved entries (count: 6):
CCn1c(OC)nnc1[C@@H](C)NS(=O)(=O)c1cc(F)c(Cl)cc1F [Compound 289]	63.6
CCn1c(OC)nnc1[C@@H](C)NS(=O)(=O)c1cc(Br)ccc1Br [Compound 303]	56.1
CCn1c(OC)nnc1[C@@H](C)NS(=O)(=O)c1cc(Br)cc(C(F)(F)F)c1 [Compound 371]	61.2
CCOc1nnc([C@@H](C)NS(=O)(=O)c2cccc(Br)c2)n1CC [Compound 408]	84.9
CCn1c(SCC2(c3ccc(Cl)cc3)CC2)nnc1[C@@H](C)NS(=O)(=O)c1ccc(Cl)cc1 [Compound 12]	85.9
CCn1c(OC)nnc1[C@@H](C)NS(=O)(=O)c1cccc(Br)c1 [Compound 206]	86.2

a = CCCSc1nnc([C@@H](Cc2ccccc2)NS(=O)(=O)c2ccc(Cl)cc2)n1CC [Compound 139]
b = CCn1c(SCCCN(C)C)nnc1[C@@H](C)NS(=O)(=O)c1ccc(Cl)cc1 [Compound 67]
Lab log: flag the item ( a or b ) with the smaller inhibition at 10 µM figure. Write down the label of the entry you select.
b
(b: 42.2%, a: 107%)

====

TEST_SYSTEM: human Edg-1(S1P1) (Homo sapiens, UniProt P21453)
Construct: expressed in transfected cells; host or cells: HEK-293
Sequence (P21453 whole entry): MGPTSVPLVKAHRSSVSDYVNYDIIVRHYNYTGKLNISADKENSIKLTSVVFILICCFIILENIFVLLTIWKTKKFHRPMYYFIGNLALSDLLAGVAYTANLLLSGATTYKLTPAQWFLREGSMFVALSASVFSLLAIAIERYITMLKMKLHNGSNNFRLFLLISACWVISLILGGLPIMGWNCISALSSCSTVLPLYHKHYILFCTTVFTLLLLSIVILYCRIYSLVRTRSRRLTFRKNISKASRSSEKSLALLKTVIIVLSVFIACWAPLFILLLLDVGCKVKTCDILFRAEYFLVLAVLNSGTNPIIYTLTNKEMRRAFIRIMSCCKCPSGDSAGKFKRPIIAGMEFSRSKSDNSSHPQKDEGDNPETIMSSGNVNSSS
TEST_METHOD_NOTES: Cell system binding test: inhibition of [3H]-S1P binding to Edg-1(S1P1) gene transferred HEK-293 cells
STATED_CONDITIONS: 10 μM compound, [3H]-S1P 10 nM, read-out: Cell system binding test % inhibition (10 μM)
PARAMETER_MEASURED: inhibition at 10 µM (%)

CCn1c(OCC(F)(F)F)nnc1[C@@H](C)NS(=O)(=O)c1ccc(Cl)cc1	91.9
CCn1c(OC)nnc1[C@@H](C)NS(=O)(=O)c1ccc(F)c(F)c1F	97.1
CCn1c(SCC(=O)c2ccccc2)nnc1[C@@H](C)NS(=O)(=O)c1ccc(Cl)cc1	92.5
CCOc1nnc([C@@H](C)NS(=O)(=O)c2cccc(OC)c2)n1CC	97.9
CCn1c(OC)nnc1[C@@H](C)NS(=O)(=O)c1ccc(Br)cc1F	103
CCn1c(OC)nnc1[C@@H](C)NS(=O)(=O)CCc1cccc2ccccc12	111
CCCSc1nnc([C@@H](C)NS(=O)(=O)c2ccc(Cl)cc2)n1CC	88.5
CCCCCc1ccc(S(=O)(=O)N[C@H](C)c2nnc(OC)n2CC)cc1	88

====

TEST_SYSTEM: human Edg-1(S1P1) (Homo sapiens)
Construct: expressed in transfected cells; host or cells: HEK-293
TEST_METHOD_NOTES: Cell system binding test: inhibition of [3H]-S1P binding to Edg-1(S1P1) gene transferred HEK-293 cells
STATED_CONDITIONS: 10 μM compound, [3H]-S1P 10 nM, read-out: Cell system binding test % inhibition (10 μM)
PARAMETER_MEASURED: inhibition at 10 µM (%)

C=CCSc1nnc([C@@H](Cc2ccccc2)NS(=O)(=O)c2ccc(Cl)cc2)n1C(C)C	96
CCn1c(OC)nnc1[C@@H](C)NS(=O)(=O)c1ccc(F)c(C#N)c1	96.2
CCn1c(OC)nnc1[C@@H](C)NS(=O)(=O)c1ccc2c(c1)OCCCO2	98.9
CCn1c(OC)nnc1[C@@H](C)NS(=O)(=O)c1ccccc1C#N	92.4
CCn1c(SC(C(=O)OC)c2ccccc2)nnc1[C@@H](C)NS(=O)(=O)c1ccc(Cl)cc1 (some centres unmarked)	93.6
C=CCSc1nnc([C@@H](Cc2ccccc2)NS(=O)(=O)c2ccc(Cl)cc2)n1CC	94.7
CCn1c(SCc2ccccc2C)nnc1[C@@H](C)NS(=O)(=O)c1ccc(Cl)cc1	89.1
CCn1c(SCCc2ccccc2)nnc1[C@@H](C)NS(=O)(=O)c1ccc(Cl)cc1	95
